B1: mRNA-splicing (parent)
chain: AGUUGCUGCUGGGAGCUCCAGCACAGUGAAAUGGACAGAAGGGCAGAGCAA

variants of: B1; assay: exon inclusion enrichment index; higher = more inclusion; WT1 exon 5 minigene, HEK293
Give exon inclusion enrichment index for every item shown.
Keep it simple and answer with nothing but the number.

Recorded result, AGUUUCUUUUGGGAGGCCCAGCACAGUGAAAUGGACAGAAGGGCAGAGCAA [G5U G8U C9U C16G U17C] , exon inclusion enrichment index: 0.0319

According to the records, this variant AGUUCGCGCCGGGAGCUCCAGCACAGUGAAAUGGACAGAAGCACAGAGCAA [G5C C6G U7C U10C G42C G43A] displays exon inclusion enrichment index of 4

What the record says about AGUUCGCGCCGGGAGCUCCAGCACAGUGAAAUGGGCAGAAGGGCAGAGCAA [G5C C6G U7C U10C A35G] : exon inclusion enrichment index is 1.93

The value of exon inclusion enrichment index measured for the variant AGUUAGGGGCGGGAGCUCCAGCACAGUGAAAUGGACAGAAGGGCAGAGCAA [G5A C6G U7G C9G U10C] turned out to be 0.00245

Query AGUUCCCACCGGGAGCUCCAGCACAGUGAAAUGGACAGAAGGGCAGAGCAA [G5C U7C G8A U10C] yields exon inclusion enrichment index of 0.327

Looking up AGUUCACAAGGGGAGCUCCAGCACAGUGAAAUGGACAGAAGGGCAGAGCAA [G5C C6A U7C G8A C9A U10G] , I see its exon inclusion enrichment index listed as 0.428

Form: variant = AGUUCAACCAGGGAGCUCCAGCACAGUGAAAUGGACAGAAGGGCAGAGCAA [G5C C6A U7A G8C U10A] ; exon inclusion enrichment index = 0.514

Sure, the documented exon inclusion enrichment index for AGUUGAAGAAGGGAGCUCCAGCACAGUGAAAUGGAAUGAAGGGCAGAGCAA [C6A U7A C9A U10A C36A A37U] is 0.229

Query AGUUGACGACGGGAGCUCCAGCACUCUGAAAUGGACAGAAGGGCAGAGCAA [C6A U7C C9A U10C A25U G26C] yields exon inclusion enrichment index of 3.26

Value of measured exon inclusion enrichment index for the entry AGUUGCUGCUGGGUGCUCCAGCACAGUGAAAUGGACAGAAGGGCAGAGCAA [A14U] : 0.0353

The recorded exon inclusion enrichment index for AGUUGCUGCUGGGAGCUCCAGCCCAGUGAAAUGGACAGAAGGGCAGAGCAA [A23C] is 0.646

Just so you know, measured exon inclusion enrichment index for AGUUCUUCUCGGGAGCUCCAGCACAGUGAAAUGGACAGAAGGGCAGAUCAA [G5C C6U G8C C9U U10C G48U] came out at 2.26

variant AGUUGCUGCUGGGAGCUCCAGCACAGUACAAUGGACAGAAGGGCAGAGCAA [G28A A29C] , exon inclusion enrichment index observed: 0.0703

exon inclusion enrichment index reading for AGUUUCUUAAGGGAGCUCCAGCACAGUGAAAUGGACAGAAGGGCAGAGCAA [G5U G8U C9A U10A] : 0.0322

What the record says about AGUUCACACAGGGAGCUCCAGCACAGUGAAAUGGAAUGAAGGGCAGAGCAA [G5C C6A U7C G8A U10A C36A A37U] : exon inclusion enrichment index is 0.0382

The variant identified as AGUUCACACAGGGAGCUCCAGCACAGUGAAAUGGACAGAAGCCCAGAGCAA [G5C C6A U7C G8A U10A G42C G43C] registered its exon inclusion enrichment index at 0.652

Sample AGUUACCACCGGGAGCUCCCGCACAGUGAAAUGGACAGAAGGGCAGAGCAA [G5A U7C G8A U10C A20C] ; exon inclusion enrichment index observed: 1.81

Record summary for AGUUCGCGCCGGGAGCUCCAGCACAGUGAAAUAAACAGAAGGGCAGAGCAA [G5C C6G U7C U10C G33A G34A] : reported exon inclusion enrichment index = 0.795

Just so you know, measured exon inclusion enrichment index for AGUUUCUUUUGGGAGCUCCAGCACAGUGAAAUGGACAGAUGGGCAGAGCAA [G5U G8U C9U A40U] came out at 0.0931

AGUUGCUGCUGGGAGCUCCAGCACAGUGAAAUGGACGAAAGGGCAGAGCAA [A37G G38A] yielded exon inclusion enrichment index of 0.201

Consider AGUUUUCGACGGGAGCUCCAGCACAGUGAAAUGGACAGAAGGGCAGAGCAA [G5U C6U U7C C9A U10C] . Its measured exon inclusion enrichment index is 2.91

For AGUUAUAUAUGGGCCCUCCAGCACAGUGAAAUGGACAGAAGGGCAGAGCAA [G5A C6U U7A G8U C9A A14C G15C] the variant record lists exon inclusion enrichment index as 0.0124

The recorded exon inclusion enrichment index for entry AGUUUCUUUUGGGGUCUCCAGCACAGUGAAAUGGACAGAAGGGCAGAGCAA [G5U G8U C9U A14G G15U] equals 0.0063

Data point: AGUUUCUUUUGGGAGCUCCAGCACAGUUCAAUGGACAGAAGGGCAGAGCAA [G5U G8U C9U G28U A29C] ; exon inclusion enrichment index = 0.0643

The variant listed as AGUUCGCGCCGGGAGCUCCAGCACAGUGAACGGGACAGAAGGGCAGAGCAA [G5C C6G U7C U10C A31C U32G] shows exon inclusion enrichment index equal to 3.82

For this variant ( AGUUACCACGUGGAGCUCCAGCACAGUGAAAUGGACAGAAGGGCAGAGCAA [G5A U7C G8A U10G G11U] ), measured exon inclusion enrichment index is 2.44

variant AGUUAUAUAUGGGAGCUCCAGAACAGUGAAAUGGACAGAAGGGCAGAGCAA [G5A C6U U7A G8U C9A C22A] , exon inclusion enrichment index observed: 0.0781

Measured exon inclusion enrichment index, AGUUCUUCUCGGGAGCUCCAGCACAGUGAAAUGGACAGGUGGGCAGAGCAA [G5C C6U G8C C9U U10C A39G A40U] : 0.232

// field: exon inclusion enrichment index; key: AGUUAUAUAUGGGAGCUCGGGCACAGUGAAAUGGACAGAAGGGCAGAGCAA [G5A C6U U7A G8U C9A C19G A20G] ; value = 0.0128

get_value(item= AGUUUUUCUCGGGAGCUCCAGCACAGUGAAAUGGACAGAAGGGCAGAGCAA [G5U C6U G8C C9U U10C] , readout=exon inclusion enrichment index) returns 0.672

Entry AGUUGCUGCUGGGAGCUCCAGGCCAGUGAAAUGGACAGAAGGGCAGAGCAA [C22G A23C] ; exon inclusion enrichment index = 1.36

Recorded exon inclusion enrichment index (variant AGUUGAAGAAGGGAGCUCCAGCACAGUGAAAUGGAGCGAAGGGCAGAGCAA [C6A U7A C9A U10A C36G A37C] ): 0.129
